biological target: human FSH receptor (Homo sapiens, UniProt P23945); construct: host or cells: CHO-K1 (CHO FSH-R 6CRE-Luc, 1D7 cells); assay: FSH receptor-dependent CRE-luciferase reporter gene assay (CHO FSH-R 6CRE-Luc cells); assay type: cell-based; settings: test concentration in μM in parentheses (30 μM); % inhibition of the response to the EC50 of FSH
Structures can show the parent of a compound that is named as a salt.
READOUT LABEL: inhibition at 30 µM (%)

Cc1ccccc1-c1ccc(C(=O)N2Cc3ccc(C(=O)CNc4cccnc4)n3Cc3ccccc32)cc1C [Example 1, formic acid salt]: 4

I. O=C(CCc1ccccc1)c1ccc2n1Cc1ccccc1N(C(=O)COc1ccc(Cl)cc1)C2
II. O=C(c1ccc(-c2ccccc2)cc1)c1ccc2n1Cc1ccccc1N(C(=O)COc1ccc(Cl)cc1)C2
III. Cc1cc(Cl)ccc1OCC(=O)N1Cc2ccc(C(=O)c3ccc(Cl)cc3)n2Cc2ccccc21
q: rank_up(items): orders items by reported inhibition at 30 µM in ascending numerical order. Lab note: record answer as labels in requested order.
a: I, II, III

###

target: human FSH receptor (Homo sapiens, UniProt P23945); construct: host or cells: CHO-K1 (CHO FSH-R 6CRE-Luc, 1D7 cells); experiment: FSH receptor-dependent CRE-luciferase reporter gene assay (CHO FSH-R 6CRE-Luc cells); type: cell-based; details: positive control, in the presence of EC50 of purified human FSH; read-out: IC50 in CRE-luciferase assay
READOUT LABEL: pIC50
// scale note: pIC50 = -log10(conc_M); give the bare number

q: For the molecule NC(=O)c1cccc(N2C(=O)[C@@H](CC(=O)NCCc3c[nH]c4ccccc34)S[C@H]2c2ccc(C#Cc3ccccc3)s2)c1 (relative stereo) [reference compound] , report pIC50.
a: 5.70

###

Target: human FSH receptor (Homo sapiens)
Construct: host or cells: CHO-K1 (CHO FSH-R 6CRE-Luc, 1D7 cells)
Sequence (P23945 18-695): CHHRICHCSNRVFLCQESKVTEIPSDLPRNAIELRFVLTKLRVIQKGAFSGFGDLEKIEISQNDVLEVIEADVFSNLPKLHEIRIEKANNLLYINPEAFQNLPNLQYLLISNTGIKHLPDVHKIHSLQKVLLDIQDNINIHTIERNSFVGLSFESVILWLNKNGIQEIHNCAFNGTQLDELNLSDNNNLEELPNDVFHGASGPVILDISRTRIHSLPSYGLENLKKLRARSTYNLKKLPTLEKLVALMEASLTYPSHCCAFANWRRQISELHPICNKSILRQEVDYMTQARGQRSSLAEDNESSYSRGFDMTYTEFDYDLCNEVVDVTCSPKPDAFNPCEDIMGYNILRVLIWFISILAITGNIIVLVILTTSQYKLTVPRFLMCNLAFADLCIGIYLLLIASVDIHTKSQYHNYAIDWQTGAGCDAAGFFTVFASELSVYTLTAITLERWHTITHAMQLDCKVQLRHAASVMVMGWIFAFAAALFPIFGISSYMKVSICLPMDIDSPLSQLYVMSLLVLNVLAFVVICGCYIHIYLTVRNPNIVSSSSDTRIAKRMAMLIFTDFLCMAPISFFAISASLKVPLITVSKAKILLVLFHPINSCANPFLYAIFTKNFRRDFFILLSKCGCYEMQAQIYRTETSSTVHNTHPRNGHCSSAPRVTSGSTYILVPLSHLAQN
Assay: FSH receptor-dependent CRE-luciferase reporter gene assay (CHO FSH-R 6CRE-Luc cells)
Type: cell-based
Settings: dose-response in presence of EC50 of purified human FSH; read-out: CRE IC50
Where a name gives a salt, the structure may show the parent alone.
READOUT LABEL: IC50 (µM)

Cc1ccccc1-c1ccc(C(=O)N2Cc3ccc(C(=O)CCc4cccnc4)n3Cc3ccccc32)cc1: 12.1

a. O=C(CCc1cccnc1)c1ccc2n1Cc1ccccc1N(C(=O)c1ccc(-c3ccccc3)cc1)C2 [Example 2, formic acid salt]
b. COc1ccccc1-c1ccc(C(=O)N2Cc3ccc(C(=O)CCc4cccnc4)n3Cc3ccccc32)cc1
q: Hi! Which is lower in terms of IC50, the first one a or the second one b ? Give the label under which the chosen entry appears.
a: b

###

READOUT LABEL: melting point (°C)

O=C(c1ccc(Cl)cc1)c1ccc2n1Cc1ccccc1N(C(=O)COc1ccc(Cl)cc1)C2 [Example 10]: 195
Cc1cc(Cl)ccc1OCC(=O)N1Cc2ccc(C(=O)c3ccc(C(C)(C)C)cc3)n2Cc2ccccc21 [Example 8]: 168

###

READOUT LABEL: melting point

O=C(c1ccc(-c2ccccc2)cc1)c1ccc2n1Cc1ccccc1N(C(=O)COc1ccc(Cl)cc1)C2 [Example 13]: 155 to 157 °C

q: For the compound Cc1cc(Cl)ccc1OCC(=O)N1Cc2ccc(C(=O)c3ccc(-c4ccccc4)cc3)n2Cc2ccccc21 [Example 7] , report melting point.
a: 102 to 105 °C

q: For the compound O=C(CCc1ccccc1)c1ccc2n1Cc1ccccc1N(C(=O)COc1ccc(Cl)cc1)C2 [Example 11] , report melting point.
a: 126 to 128 °C

q: For the compound Cc1ccccc1-c1ccc(C(=O)N2Cc3ccc(C(=O)CCc4cccnc4)n3Cc3ccccc32)cc1 [Example 15] , report melting point.
a: 135 to 136 °C

q: For the compound CC(C)(C)c1ccc(C(=O)c2ccc3n2Cc2ccccc2N(C(=O)COc2ccc(Cl)cc2)C3)cc1 [Example 12] , report melting point.
a: 171 °C

q: For the compound Cc1cc(Cl)ccc1OCC(=O)N1Cc2ccc(C(=O)c3cccc4ccccc34)n2Cc2ccccc21 [Example 6] , report melting point.
a: 130 to 134 °C
